Target: Kras and SOS1 (biotin-tagged human Kras loaded with GDP, His-tagged human SOS1) (Homo sapiens, UniProt P01116, G12D)
Construct: made in house; host or cells: E. coli (stated for Kras only)
Sequence (P01116 1-188 isoform P01116-2 G12D): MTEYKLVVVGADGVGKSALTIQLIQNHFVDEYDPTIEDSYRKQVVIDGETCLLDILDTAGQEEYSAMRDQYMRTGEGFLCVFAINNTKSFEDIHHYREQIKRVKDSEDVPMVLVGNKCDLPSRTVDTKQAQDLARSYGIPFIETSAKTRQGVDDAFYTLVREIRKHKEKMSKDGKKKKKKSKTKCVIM
Experiment: Protein-protein interaction inhibition between Kras and SOS1 (KrasGl2D-SOS PPI) using AlphaScreen
Format: binding
Conditions: AlphaScreen; biotin-tagged human Kras loaded with GDP, His-tagged human SOS1; read-out: KRAS G12D-SOS PPI IC50
pIC50: −log10 of the molar value. Positions of bridges follow the written chain, without caps; N, C: chain ends. Non-standard residues stand in square brackets, D forms with d. Residues, ends and D or L forms follow the SMILES beside them. *: point of attachment. hPhe(3-Cl-4-CF3) = N[C@@H](CCc1ccc(C(F)(F)F)c(Cl)c1)C(=O)O; NMeCha = CN[C@@H](CC1CCCCC1)C(=O)O; NMeD = CN[C@@H](CC(=O)O)C(=O)O; NMeL = CN[C@@H](CC(C)C)C(=O)O; NMeV = CN[C@H](C(=O)O)C(C)C; NMeA = CN[C@@H](C)C(=O)O; Piperidide = C1CCN(*)CC1; Ac5c = NC1(C(=O)O)CCCC1; Aze = O=C(O)[C@@H]1CCN1; Sar = CNCC(=O)O
measurement.type: pIC50

[[record]]
molecule = "CC[C@H](C)[C@@H]1NC(=O)[C@H](CC(C)C)NC(=O)C[C@@H](C(=O)N2CCCCC2)N(C)C(=O)[C@H](C(C)C)N(C)C(=O)C2(CCCC2)NC(=O)[C@@H]2CCCN2C(=O)[C@H](CCc2ccc(C(F)(F)F)c(Cl)c2)NC(=O)CN(C)C(=O)[C@H](CC2CCCCC2)N(C)C(=O)[C@@H]2CCN2C(=O)[C@H](C)N(C)C1=O [Compound 368] (LI[NMeA][Aze][NMeCha][Sar][hPhe(3-Cl-4-CF3)]P[Ac5c][NMeV][NMeD]-Piperidide; lactam N-11)"
recorded_measurement = 8.57

[[record]]
molecule = "CC[C@H](C)[C@@H]1NC(=O)[C@H](CC(C)C)N(C)C(=O)C[C@@H](C(=O)N2CCCCC2)N(C)C(=O)[C@H](CC2CCCCC2)N(C)C(=O)C2(CCCC2)NC(=O)[C@@H]2CCCN2C(=O)[C@H](CCc2ccc(C(F)(F)F)c(Cl)c2)NC(=O)CN(C)C(=O)[C@H](CC2CCCCC2)N(C)C(=O)CN(C)C(=O)CN(C)C1=O [Compound 577] ([NMeL]I[Sar][Sar][NMeCha][Sar][hPhe(3-Cl-4-CF3)]P[Ac5c][NMeCha][NMeD]-Piperidide; lactam N-11)"
recorded_measurement = 7.68


====

Biological target: Kras and SOS1 (biotin-tagged human Kras loaded with GDP, His-tagged human SOS1) (Homo sapiens, UniProt P01116, G12D)
Construct: made in house; host or cells: E. coli (stated for Kras only)
Experiment: Protein-protein interaction inhibition between Kras and SOS1 (KrasGl2D-SOS PPI) using AlphaScreen
Type: binding
Conditions: AlphaScreen; biotin-tagged human Kras loaded with GDP, His-tagged human SOS1; read-out: KRAS G12D-SOS PPI IC50
pIC50: −log10 of the molar value. Positions of bridges follow the written chain, without caps; N, C: chain ends. Non-standard residues stand in square brackets, D forms with d. Residues, ends and D or L forms follow the SMILES beside them. *: point of attachment. hPhe(3-Cl-4-CF3) = N[C@@H](CCc1ccc(C(F)(F)F)c(Cl)c1)C(=O)O; NMePhe(3-Br) = CN[C@@H](Cc1cccc(Br)c1)C(=O)O; NMePhe(4-Cl) = CN[C@@H](Cc1ccc(Cl)cc1)C(=O)O; NMePhe(4-Me) = CN[C@@H](Cc1ccc(C)cc1)C(=O)O; hPhe(4-Cl) = N[C@@H](CCc1ccc(Cl)cc1)C(=O)O; NMeAla(cPent) = CN[C@@H](CC1CCCC1)C(=O)O; Phe(3-I) = N[C@@H](Cc1cccc(I)c1)C(=O)O; NMeY = CN[C@@H](Cc1ccc(O)cc1)C(=O)O; NMeI = CC[C@H](C)[C@H](NC)C(=O)O; NMeD = CN[C@@H](CC(=O)O)C(=O)O; NMeL = CN[C@@H](CC(C)C)C(=O)O; NMeV = CN[C@H](C(=O)O)C(C)C; NMeA = CN[C@@H](C)C(=O)O; NMeAib = CNC(C)(C)C(=O)O; Piperidide = C1CCN(*)CC1; Ac5c = NC1(C(=O)O)CCCC1; Aze = O=C(O)[C@@H]1CCN1; CF3 = FC(F)(F)*; Sar = CNCC(=O)O
Attribute: pIC50
measurement.type: pIC50

[[record]]
compound = "CC[C@H](C)[C@@H]1NC(=O)[C@H](CC(C)C)N(C)C(=O)C[C@@H](C(=O)N(C)C)N(C)C(=O)[C@H]([C@@H](C)CC)N(C)C(=O)C2(CCCC2)NC(=O)[C@H](Cc2ccc(OC(F)(F)F)cc2)N(C)C(=O)[C@H](CCc2ccc(C(F)(F)F)c(Cl)c2)NC(=O)CN(C)C(=O)[C@H](Cc2ccc(C)cc2)N(C)C(=O)[C@@H]2CCN2C(=O)[C@H](C)N(C)C1=O [Compound 1902] ([NMeL]I[NMeA][Aze][NMePhe(4-Me)][Sar][hPhe(3-Cl-4-CF3)][NMeY](CF3)[Ac5c][NMeI][NMeD]-NMe2; lactam N-11)"
measurement_type = "pIC50"
recorded_measurement = 7.27

[[record]]
compound = "CC[C@H](C)[C@@H]1NC(=O)[C@H](CC(C)C)N(C)C(=O)C[C@@H](C(=O)N2CCCCC2)N(C)C(=O)[C@H](C(C)C)N(C)C(=O)C2(CCCC2)NC(=O)[C@@H]2CCCN2C(=O)[C@H](CCc2ccc(C(F)(F)F)c(Cl)c2)NC(=O)CN(C)C(=O)[C@H](Cc2cccc(Br)c2)N(C)C(=O)CN(C)C(=O)CN(C)C1=O [Compound 1643] ([NMeL]I[Sar][Sar][NMePhe(3-Br)][Sar][hPhe(3-Cl-4-CF3)]P[Ac5c][NMeV][NMeD]-Piperidide; lactam N-11)"
measurement_type = "pIC50"
recorded_measurement = 8.14

[[record]]
compound = "CC[C@H](C)[C@@H]1NC(=O)[C@H](CC2CCCC2)N(C)C(=O)C[C@@H](C(=O)N(C)C)N(C)C(=O)[C@H]([C@@H](C)CC)N(C)C(=O)C2(CCCC2)NC(=O)[C@@H]2CCCN2C(=O)[C@H](CCc2ccc(C(F)(F)F)c(Cl)c2)NC(=O)CN(C)C(=O)[C@H](Cc2ccc(C)cc2)N(C)C(=O)[C@@H]2CCN2C(=O)[C@H](C)NC1=O [Compound 1141] ([NMeAla(cPent)]IA[Aze][NMePhe(4-Me)][Sar][hPhe(3-Cl-4-CF3)]P[Ac5c][NMeI][NMeD]-NMe2; lactam N-11)"
measurement_type = "pIC50"
recorded_measurement = 9.01

[[record]]
compound = "CC[C@H](C)[C@@H]1NC(=O)[C@H](CC(C)C)N(C)C(=O)C[C@@H](C(=O)N2CCCCC2)N(C)C(=O)[C@H](C(C)C)N(C)C(=O)C2(CCCC2)NC(=O)[C@@H]2CCCN2C(=O)[C@H](CCc2ccc(Cl)cc2)NC(=O)CN(C)C(=O)[C@H](CC2CCCC2)N(C)C(=O)CN(C)C(=O)CN(C)C1=O [Compound 167] ([NMeL]I[Sar][Sar][NMeAla(cPent)][Sar][hPhe(4-Cl)]P[Ac5c][NMeV][NMeD]-Piperidide; lactam N-11)"
measurement_type = "pIC50"
recorded_measurement = 7.24

[[record]]
compound = "CC[C@H](C)[C@@H]1NC(=O)[C@H](CC(C)C)N(C)C(=O)C[C@@H](C(=O)N2CCCCC2)N(C)C(=O)[C@H](CC(C)C)NC(=O)C(C)(C)N(C)C(=O)[C@H](CC(C)C)NC(=O)[C@H](Cc2cccc(I)c2)NC(=O)CN(C)C(=O)[C@H](Cc2ccc(Cl)cc2)N(C)C(=O)CN(C)C(=O)CN(C)C1=O [Compound 295] ([NMeL]I[Sar][Sar][NMePhe(4-Cl)][Sar][Phe(3-I)]L[NMeAib]L[NMeD]-Piperidide; lactam N-11)"
measurement_type = "pIC50"
recorded_measurement = 7.17


====

Molecular target: Kras and SOS1 (biotin-tagged human Kras loaded with GDP, His-tagged human SOS1) (Homo sapiens, UniProt P01116, G12D)
Construct: made in house; host or cells: E. coli (stated for Kras only)
Test: Protein-protein interaction inhibition between Kras and SOS1 (KrasGl2D-SOS PPI) using AlphaScreen
Assay type: binding
Details: AlphaScreen; biotin-tagged human Kras loaded with GDP, His-tagged human SOS1; read-out: KRAS G12D-SOS PPI IC50
Positions of bridges follow the written chain, without caps; N, C: chain ends. Non-standard residues stand in square brackets, D forms with d. Residues, ends and D or L forms follow the SMILES beside them. *: point of attachment. hPhe(3-Cl-4-CF3) = N[C@@H](CCc1ccc(C(F)(F)F)c(Cl)c1)C(=O)O; NMeAla(cPent) = CN[C@@H](CC1CCCC1)C(=O)O; NMeD = CN[C@@H](CC(=O)O)C(=O)O; NMeL = CN[C@@H](CC(C)C)C(=O)O; NMeV = CN[C@H](C(=O)O)C(C)C; Pyrrolidide = C1CCN(*)C1; Ac5c = NC1(C(=O)O)CCCC1; Sar = CNCC(=O)O
measurement.type: IC50

[[record]]
molecule = "CC[C@H](C)[C@@H]1NC(=O)[C@H](CC(C)C)N(C)C(=O)C[C@@H](C(=O)N2CCCC2)N(C)C(=O)[C@H](C(C)C)N(C)C(=O)C2(CCCC2)NC(=O)[C@@H]2CCCN2C(=O)[C@H](CCc2ccc(C(F)(F)F)c(Cl)c2)NC(=O)CN(C)C(=O)[C@H](CC2CCCC2)N(C)C(=O)CN(C)C(=O)CN(C)C1=O [Compound 1699] ([NMeL]I[Sar][Sar][NMeAla(cPent)][Sar][hPhe(3-Cl-4-CF3)]P[Ac5c][NMeV][NMeD]-Pyrrolidide; lactam N-11)"
measurement_type = "IC50"
recorded_measurement = "1.1 nM"

